These data points were gathered from ChEMBL document CHEMBL1146708.

ASSAY_OVERVIEW: Oral bioavailability in rat
Assay type: ADME, organism-based
DETAILS: in vivo
ASSAY_METRIC: bioavailability (%)

Below, 6 compounds whose answers are already recorded.
- SMILES_CODE: "N[C@H](C(=O)N1CCCC1)[C@H]1CC[C@H](NS(=O)(=O)c2ccc(F)cc2F)CC1"
  RESULT_UNIT: "%"
  bioavailability: 36
- SMILES_CODE: "N[C@H](C(=O)N1CCCC1)[C@H]1CC[C@H](NC(=O)c2cccc3ccccc23)CC1"
  RESULT_UNIT: "%"
  bioavailability: 30
- SMILES_CODE: "N[C@H](C(=O)N1CCCC1)[C@H]1CC[C@H](NS(=O)(=O)c2ccc(OC(F)(F)F)cc2)CC1"
  RESULT_UNIT: "%"
  bioavailability: 38
- SMILES_CODE: "CN(C)C(=O)Nc1ccc(S(=O)(=O)N[C@H]2CC[C@H]([C@H](N)C(=O)N3CCCC3)CC2)cc1"
  RESULT_UNIT: "%"
  bioavailability: 1
- SMILES_CODE: "N[C@H](C(=O)N1CCSC1)[C@H]1CC[C@H](NC(=O)c2cccc3ccccc23)CC1"
  RESULT_UNIT: "%"
  bioavailability: 51
- SMILES_CODE: "N[C@H](C(=O)N1CCSC1)[C@H]1CC[C@H](NC(=O)c2ccc(F)c(F)c2)CC1"
  RESULT_UNIT: "%"
  bioavailability: 81

1: N[C@H](C(=O)N1CCSC1)[C@H]1CC[C@H](NS(=O)(=O)c2ccc(OC(F)(F)F)cc2)CC1
2: N[C@H](C(=O)N1CCSC1)[C@H]1CC[C@H](NC(=O)Nc2ccc(I)cc2)CC1
3: N[C@H](C(=O)N1CCCC1)[C@H]1CC[C@H](NS(=O)(=O)c2ccc(NS(=O)(=O)CC(F)(F)F)cc2)CC1
4: N[C@H](C(=O)N1CCCC1)[C@H]1CC[C@H](NC(=O)OCc2ccccc2)CC1
Please order the records by their reported bioavailability, lowest number first. To answer, write out the labels according to the requested order. 3, 2, 4, 1
(3: 0%, 2: 12%, 4: 52%, 1: 85%)

---

ASSAY_OVERVIEW: Half life in dogs
Type: ADME, organism-based, Canis lupus familiaris
DETAILS: dog, in vivo
ASSAY_METRIC: half-life (h)
All answers are understood in h, so give the number only.

Record request: half-life value, item `N[C@H](C(=O)N1CCCC1)[C@H]1CC[C@H](NS(=O)(=O)c2ccc(F)cc2F)CC1` 6

---

Entries with reported IC50 on Dipeptidyl peptidase 4 (Homo sapiens, UniProt P27487)
Sequence (P27487 whole entry): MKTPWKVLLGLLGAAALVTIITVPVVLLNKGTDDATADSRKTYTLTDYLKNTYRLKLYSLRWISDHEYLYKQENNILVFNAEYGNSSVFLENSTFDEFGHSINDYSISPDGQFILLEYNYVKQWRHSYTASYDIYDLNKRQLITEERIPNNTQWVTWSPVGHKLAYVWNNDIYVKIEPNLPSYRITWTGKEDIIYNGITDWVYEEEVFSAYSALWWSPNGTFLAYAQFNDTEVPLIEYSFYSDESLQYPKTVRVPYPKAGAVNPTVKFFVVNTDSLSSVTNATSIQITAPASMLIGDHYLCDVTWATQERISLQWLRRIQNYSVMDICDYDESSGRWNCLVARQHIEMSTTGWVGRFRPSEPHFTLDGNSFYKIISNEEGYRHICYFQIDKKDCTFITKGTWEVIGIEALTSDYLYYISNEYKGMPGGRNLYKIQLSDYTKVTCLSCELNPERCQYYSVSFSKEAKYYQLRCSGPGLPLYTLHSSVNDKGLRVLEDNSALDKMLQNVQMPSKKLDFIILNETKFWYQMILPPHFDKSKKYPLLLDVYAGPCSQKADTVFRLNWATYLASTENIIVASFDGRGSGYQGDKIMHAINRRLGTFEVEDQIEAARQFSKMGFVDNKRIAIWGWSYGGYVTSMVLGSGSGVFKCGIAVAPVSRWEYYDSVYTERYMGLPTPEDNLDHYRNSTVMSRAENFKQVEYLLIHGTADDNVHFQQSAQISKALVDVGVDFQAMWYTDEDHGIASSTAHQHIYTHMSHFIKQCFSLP
ASSAY_METRIC: IC50 (nM)

Below, 4 compounds whose answers are already recorded.
- SMILES_CODE: "CN(C)C(=O)Nc1ccc(S(=O)(=O)N[C@H]2CC[C@H]([C@H](N)C(=O)N3CCCC3)CC2)cc1"
  TARGET_OR_TEST_SYSTEM: "Dipeptidyl peptidase 4 (Homo sapiens, UniProt P27487)"
  IC50 (nM): 26
- SMILES_CODE: "N[C@H](C(=O)N1CCCC1)[C@H]1CC[C@H](NC(=O)c2cccc3ccccc23)CC1"
  TARGET_OR_TEST_SYSTEM: "Dipeptidyl peptidase 4 (Homo sapiens, UniProt P27487)"
  IC50 (nM): 46
- SMILES_CODE: "N[C@H](C(=O)N1CCSC1)[C@H]1CC[C@H](NC(=O)Nc2ccc(Cl)c(Cl)c2)CC1"
  TARGET_OR_TEST_SYSTEM: "Dipeptidyl peptidase 4 (Homo sapiens, UniProt P27487)"
  IC50 (nM): 17
- SMILES_CODE: "N[C@H](C(=O)N1CCSC1)[C@H]1CC[C@H](NC(=O)c2ccc(Cl)c(Cl)c2)CC1"
  TARGET_OR_TEST_SYSTEM: "Dipeptidyl peptidase 4 (Homo sapiens, UniProt P27487)"
  IC50 (nM): 38

1: N[C@H](C(=O)N1CCSC1)[C@H]1CC[C@H](NC(=O)c2ccc(I)cc2)CC1
2: N[C@H](C(=O)N1CCSC1)[C@H]1CC[C@H](NS(=O)(=O)c2ccc3ccccc3c2)CC1
Higher IC50: 1 or 2 ? Respond with the label that goes with your answer. 1
(1: 33 nM, 2: 18 nM)
